Data origin: patent US7713969B2

Target: c-Met (Homo sapiens, UniProt P08581)
Sequence (P08581 25-1390): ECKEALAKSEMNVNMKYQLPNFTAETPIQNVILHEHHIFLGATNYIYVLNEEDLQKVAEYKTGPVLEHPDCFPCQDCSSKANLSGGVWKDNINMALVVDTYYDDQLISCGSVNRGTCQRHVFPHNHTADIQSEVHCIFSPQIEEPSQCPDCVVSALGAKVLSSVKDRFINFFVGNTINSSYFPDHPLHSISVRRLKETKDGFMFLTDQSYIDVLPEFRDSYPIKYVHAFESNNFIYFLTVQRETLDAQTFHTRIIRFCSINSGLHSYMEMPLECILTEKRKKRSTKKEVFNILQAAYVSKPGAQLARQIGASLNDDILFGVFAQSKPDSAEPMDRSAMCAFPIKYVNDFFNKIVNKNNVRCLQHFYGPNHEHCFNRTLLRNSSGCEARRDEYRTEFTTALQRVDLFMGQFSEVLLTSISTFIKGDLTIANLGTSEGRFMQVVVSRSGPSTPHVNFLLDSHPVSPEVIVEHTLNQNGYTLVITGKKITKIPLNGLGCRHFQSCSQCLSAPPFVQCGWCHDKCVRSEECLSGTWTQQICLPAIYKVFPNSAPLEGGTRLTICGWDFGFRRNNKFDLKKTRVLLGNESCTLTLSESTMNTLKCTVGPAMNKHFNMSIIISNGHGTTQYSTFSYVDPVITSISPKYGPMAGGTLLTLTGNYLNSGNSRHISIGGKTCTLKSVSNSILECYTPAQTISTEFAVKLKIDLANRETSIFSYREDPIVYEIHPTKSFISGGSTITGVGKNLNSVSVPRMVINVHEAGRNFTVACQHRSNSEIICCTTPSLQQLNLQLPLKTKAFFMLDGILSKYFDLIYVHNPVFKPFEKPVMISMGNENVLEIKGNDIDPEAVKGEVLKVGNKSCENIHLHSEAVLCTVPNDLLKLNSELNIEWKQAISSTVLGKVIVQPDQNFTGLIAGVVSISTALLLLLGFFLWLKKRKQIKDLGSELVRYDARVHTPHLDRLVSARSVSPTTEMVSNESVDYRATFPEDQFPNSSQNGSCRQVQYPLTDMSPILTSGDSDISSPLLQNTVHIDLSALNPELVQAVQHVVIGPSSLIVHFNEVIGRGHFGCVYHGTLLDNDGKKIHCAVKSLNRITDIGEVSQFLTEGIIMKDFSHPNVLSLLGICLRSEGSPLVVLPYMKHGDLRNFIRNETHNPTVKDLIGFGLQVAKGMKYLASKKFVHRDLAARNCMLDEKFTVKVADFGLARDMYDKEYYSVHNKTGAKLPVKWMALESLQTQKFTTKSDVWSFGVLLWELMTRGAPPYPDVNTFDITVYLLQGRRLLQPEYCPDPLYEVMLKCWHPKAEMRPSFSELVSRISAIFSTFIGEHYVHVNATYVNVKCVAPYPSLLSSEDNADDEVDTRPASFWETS
Test: c-Met inhibition, phospho-c-Met blot with densitometry (Example 83)
Assay type: cell-based
Design: whole cell extracts were prepared; endogenous in cells; host or cells: MCF-7, MDA-MB-231, DLD1, HT29, PACA2, PANC-1, NCI-H441
Details: MDA-MB-231 cells, 24 hours treatment; read-out: (−)-trans IC50 c-Met Inhibition
Procedure: To determine c-met inhibition, exponentially growing MCF-7 and MDA-MB-231 human breast cancer cells, DLD1 and HT29 human colon cancer cells, PACA2 and PANC-1 human pancreatic cancer cells and NCI-H441 human non-small cell lung cancer cells (H441) were serum starved in 0.5% FBS and treated with increasing amounts of (−)-trans-3-(5,6-dihydro-4H-pyrrolo [3,2,1-ij]quinolin-1-yl)-4(1H-indol-3-yl)pyrrolidine-2,5-dione for 24 hours as indicated. […]
METRIC: pIC50
Reminder that pIC50 is minus the log10 of a molar concentration.

Form field, pIC50 with c-Met (Homo sapiens, UniProt P08581), item O=C1NC(=O)C(c2cn3c4c(cccc24)CCC3)C1c1c[nH]c2ccccc12 (single isomer, unassigned; (-)) : 7.00
